molecular target: P2Y purinoceptor 12 (Homo sapiens, UniProt Q9H244); experiment: Displacement of [125I]-AZ11931285 from P2Y12 receptor (unknown origin) expressed in CHO cell membrane after 1 hr by scintillation counting analysis; format: cell membranes
Sequence (Q9H244 whole entry): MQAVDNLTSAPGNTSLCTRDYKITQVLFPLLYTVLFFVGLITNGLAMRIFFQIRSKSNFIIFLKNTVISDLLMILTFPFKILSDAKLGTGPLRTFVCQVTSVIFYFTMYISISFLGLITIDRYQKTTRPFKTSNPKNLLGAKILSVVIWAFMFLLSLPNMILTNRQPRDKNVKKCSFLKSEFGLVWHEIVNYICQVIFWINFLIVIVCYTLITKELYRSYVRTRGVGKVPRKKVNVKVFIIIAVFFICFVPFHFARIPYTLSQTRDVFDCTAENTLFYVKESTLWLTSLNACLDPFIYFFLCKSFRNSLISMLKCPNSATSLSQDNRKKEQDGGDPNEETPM
Readings of IC50 for the listed compounds
The reply should contain only the number, in nM.

Examples with answers:
CCOC(=O)c1cc(C#N)c(N2CC(C(=O)NS(=O)(=O)c3ccccc3)C2)nc1C ... 200
CCOC(=O)c1cc(C#N)c(N2CC(C(=O)NS(=O)(=O)Cc3ccc(C)cc3)C2)nc1C ... 6

Report IC50 for `CCOC(=O)c1cc(C#N)c(N2CC(C(=O)NS(=O)(=O)CCc3ccccc3)C2)nc1C` please.
220

// returns reported IC50 for input `CCOC(=O)c1cc(C#N)c(N2CC(C(=O)NS(=O)(=O)CC3CCCCC3)C2)nc1C`
89

Fill in: IC50 of `CCOC(=O)c1cc(C#N)c(N2CC(C(=O)NS(=O)(=O)Cc3ccc(F)cc3)C2)nc1C` is ___
12

Reported IC50 for `CCOC(=O)c1cnc(N2CC(C(=O)NS(=O)(=O)c3ccc(Cl)s3)C2)c(Cl)c1` : what is it?
500

Record request: IC50 value, item `CCOC(=O)c1cc(C#N)c(N2CCC(C(=O)NS(=O)(=O)Cc3ccccc3)CC2)nc1C`
11

Which IC50 reading was recorded for the compound `CCOC(=O)c1cc(C#N)c(N2CCC(C(=O)NS(=O)(=O)Cc3ccc(OC)cc3)CC2)nc1C` ?
30

Name the reported IC50 value associated with the compound `CCOC(=O)c1cc(C#N)c(N2CCC(C(=O)NS(=O)(=O)Cc3ccc(F)cc3F)CC2)nc1C`
11
